# Tested on: L6
# ASSAY_REMARKS: Cytotoxicity against rat L6 cells after 70 hrs by alamar blue assay
# Format: cell-based
# EXPERIMENTAL_CONTEXT: L6, 70 h
pIC50: −log10 of the molar value.
Property: pIC50; scope: individual compounds
OBSERVED_PROPERTY: pIC50

                              sample_smiles  test_target  obs_value
0  CC(C)NC(=N)c1cccc(OCCCOc2cccc(C(=N)NC(C)C)c2)c1           L6     < 3.74
1  CCOC(=O)c1cc(C(=N)NC(C)C)ccc1OCCCCCOc1ccc(C(=N)NC(C)C)cc1C(=O)OCC.Cl.Cl           L6     < 3.85
2  COc1cc(C2=NCCN2)ccc1OCCCCCOc1ccc(C2=NCCN2)cc1OC.Cl.Cl           L6     < 3.80
3  Cl.c1cc(C2=NCCN2)ccc1OCCCCCOc1ccc(C2=NCCN2)cc1           L6     < 3.75
4  Nc1cc(C2=NCCN2)ccc1OCCCOc1ccc(C2=NCCN2)cc1N           L6     < 3.78
